Molecular target: 17β-hydroxysteroid dehydrogenase type 3 (17β-HSD type 3) (Homo sapiens, UniProt P37058)
Construct: expressed in transfected cells; host or cells: MCF-7
Sequence (P37058 whole entry): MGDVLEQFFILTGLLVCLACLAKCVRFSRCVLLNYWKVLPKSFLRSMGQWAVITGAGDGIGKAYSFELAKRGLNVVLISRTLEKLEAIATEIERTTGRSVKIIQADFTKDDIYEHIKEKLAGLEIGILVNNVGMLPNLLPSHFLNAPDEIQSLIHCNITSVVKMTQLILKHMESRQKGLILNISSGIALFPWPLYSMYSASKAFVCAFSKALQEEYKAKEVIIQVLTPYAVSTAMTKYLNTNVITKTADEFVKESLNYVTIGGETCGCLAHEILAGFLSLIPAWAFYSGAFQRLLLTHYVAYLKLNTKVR
Experiment: Inhibition of 17β-HSD type 3 in MCF-7 cells stably expressing the isoenzyme (tritium labeled androstenedione conversion, HPLC)
Assay type: cell-based
Settings: MCF7; 10 μM test compound; MCF-7 cells expressing 17β-HSD type 3; 2 nM tritium labeled androstenedione; read-out: % Inhibition HSD3 10 μM
Mark t for reported inhibition at 10 µM of 40% or greater; mark f for anything smaller.

These solved cases illustrate the format of a correct answer.
COc1cc(-c2nc3sc4c(c3c(=O)n2CC(C)C)CCC(Br)C4=O)cc(OC)c1OC (centres unmarked) :: f
O=C1CCCc2c1sc1nc(-c3ccc(Br)s3)n(Cc3ccccc3)c(=O)c21 :: t
CCOC(=O)c1nc2sc3c(c2c(=O)n1-c1ccccc1)CCCC3 :: f
COc1ccc(-c2nc3sc4c(c3c(=O)n2Cc2ccccc2)CCC(Br)C4=O)cc1 (centres unmarked) :: f

Kindly consider the entry below.
Exam item: decide whether the reported inhibition at 10 µM for COCCn1c(-c2cccs2)nc2sc3c(c2c1=O)CCC(Br)C3=O (centres unmarked) is at least 40%. t
